Attribution: paper PMC5540273

Below is a list of entries, each paired with its recorded %Inh value.
tested on: ITK; conditions: concentration: 1 μM, replicates: in singlicate; n = 1;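 note: KINOMEscan kinase panel screen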
The answer consists of two parts: a number and, after it, its unit.

# annotated cases, reported %Inh shown
structure smiles string | %Inh
CC(C)c1nc(-c2cccc(NS(=O)(=O)c3c(F)cccc3F)c2)c(-c2ccnc(Nc3ccc(N4CCOCC4)nc3)n2)s1.Cl | 95.7%
O=C(Nc1n[nH]c2nc(-c3cccc(O)c3)ccc12)C1CC1 | 0%
CS(=O)(=O)c1cccc(CNc2nc(Nc3ccc4c(c3)CCC(=O)N4)ncc2C(F)(F)F)c1 | 0%

In plain terms, CN(c1ccc2c(c1)nc(NCc1ccccc1)n2C)c1ccnc(Nc2ccc(CS(C)(=O)=O)cc2)n1.Cl has a documented %Inh of 0%
